molecular target: Protein Rev (Human immunodeficiency virus type 1 group M subtype B (isolate HXB2)); assay: inhibitors of HIV-1 Rev binding to RRE RNA, late-stage follow-up, counter-screen for gld-1 inhibitor project, biochemical, FRET, dose response (AID 488798)
Active and inactive are the calls of the source. No rule for the calls is given here.

| mol smiles | IC50 |
| --- | --- |
| Nc1c(O)ccc2c1C(=O)c1ccccc1C2=O | > 75.4 µM (inactive) |
| O=c1[nH]c2cc3ccccc3cc2nc1C(F)(F)F | inactive |
| CCN(CC)S(=O)(=O)c1ccc(N2CCCC2)c(NS(=O)(=O)c2ccc(F)cc2)c1 | > 75.4 µM (inactive) |
| CCOC(=O)c1c(C)oc2c1cc(NS(=O)(=O)c1ccc(C)cc1)c1ccccc12 | > 75.4 µM (inactive) |
| Nc1ccc(O)c2c1C(=O)c1ccccc1C2=O | > 75.4 µM (inactive) |
| O=C(CN1C(=O)NC2(CCCCC2)C1=O)Oc1ccc2c(C(F)(F)F)cc(=O)oc2c1 | > 75.4 µM (inactive) |
| O=C1C2=C(SCCS2)C(=O)N1CCCO | > 75.4 µM (inactive) |
| Cc1ccc(S(=O)(=O)Nc2cc3c(C(=O)Nc4ccccc4)c(C)oc3c3ccccc23)cc1 | inactive |
| COc1ccc(/C=C(\CC(=O)O)c2nc3ccccc3s2)cc1O | > 75.4 µM (inactive) |
| O=c1[nH]c(=O)c2nc3ccccc3nc2[nH]1 | > 75.4 µM (inactive) |
| CCCCn1c(=O)[nH]c2nc3cc(NC(C)=O)ccc3nc2c1=O | inactive |
